Quick list: mass density per entry.
test.context: 333.15 K; 94.9 kPa; Liquid; Vibrating tube method
Write down the numeric answer in kg/m3 and omit the unit.

CCCCCCCCO
796.88

So for CCCCCCCCCCO , the logged mass density turned out to be 801.43

So for Cc1ccccc1 , the logged mass density turned out to be 828.94

So for C1COCCN1 [tetrahydro-1,4-oxazine] , the logged mass density turned out to be 959.74

----------
test.context: 323.15 K; 94.9 kPa; Liquid; Vibrating tube method
attribute.measured: mass density (kg/m3)
Write down the numeric answer in kg/m3 and omit the unit.

// solved cases for mass density follow
Cc1ccccc1 [toluene]
838.42
C1COCCN1 [tetrahydro-1,4-oxazine]
969.78
CCCCCCCCCCO [decan-1-ol]
808.84

Now take the following molecule into account.
So for CCCCCCCCO [octan-1-ol] , the logged mass density turned out to be 804.05
